Literature compilation of IC50 measurements on glutaminase (GAC) (Homo sapiens, UniProt O94925).

compound | IC50
COc1cccc(CC(=O)Nc2nnc([C@H]3CCC[C@H](c4nnc(NC(C)=O)s4)C3)s2)c1 | 100 to 500 nM
O=C(Nc1ccc([C@@H]2CCC[C@H](c3ccc(NC(=O)OCc4ccccc4)nn3)C2)nn1)OCc1ccccc1 | < 100 nM
Cn1cc(CC(=O)Nc2nnc([C@@H]3CCC[C@H](c4nnc(NC(=O)Cc5cn(C)c6ccccc56)s4)C3)s2)c2ccccc21 | 500 to 1000 nM
CC(=O)Nc1nnc([C@H]2CCC[C@H](c3nnc(NC(=O)Cc4ccc(N5CC(F)(F)C5)cn4)s3)C2)s1 | 100 to 500 nM
O=C(Cc1cccc(Cl)c1)Nc1nnc([C@H]2CCC[C@H](c3nnc(NC(=O)Cc4cccc(Cl)c4)s3)C2)s1 | 100 to 500 nM
COCCOc1ccnc(CC(=O)Nc2nnc([C@H]3CCC[C@H](c4nnc(NC(=O)Cc5cc(OCCOC)ccn5)s4)C3)s2)c1 | < 100 nM
CCOC(=O)CCC(=O)Nc1nnc(CCCCc2nnc(NC(=O)CCC(=O)OCC)s2)s1 | 100 to 500 nM
O=C(Cc1ccccc1)Nc1nnc(CCSCc2nnc(NC(=O)Cc3ccccc3)s2)s1 | < 100 nM
O=C(Cc1c[nH]c2ccccc12)Nc1nnc(CCCCc2nnc(NC(=O)Cc3c[nH]c4ccccc34)s2)s1 | < 100 nM
O=C(Cc1cccc(N2CCC2)c1)Nc1nnc([C@H]2CCC[C@H](c3nnc(NC(=O)Cc4cccc(N5CCC5)c4)s3)C2)s1 | < 100 nM
O=C(Cc1ncccn1)Nc1nnc([C@H]2CCC[C@H](c3nnc(NC(=O)Cc4ncccn4)s3)C2)s1 | < 100 nM
O=C(Cc1ccc2c(c1)OCO2)Nc1nnc([C@H]2CCC[C@H](c3nnc(NC(=O)Cc4ccc5c(c4)OCO5)s3)C2)s1 | < 100 nM
CCNc1cccc(CC(=O)Nc2nnc([C@H]3CCC[C@H](c4nnc(NC(=O)Cc5cccc(NCC)c5)s4)C3)s2)c1 | < 100 nM
O=C(Cc1cccnc1)Nc1nnc(C2CCCCC(c3nnc(NC(=O)Cc4cccnc4)s3)C2)s1 (stereo not shown) | 100 to 500 nM
O=C(Cc1cccc(OC(F)(F)F)c1)Nc1ccc([C@@H]2CCC[C@H](c3ccc(NC(=O)Cc4cccc(OC(F)(F)F)c4)nn3)C2)nn1 | 100 to 500 nM
O=C(CCc1ccccc1)Nc1nnc(CCS(=O)(=O)CCc2nnc(NC(=O)CCc3ccccc3)s2)s1 | < 100 nM
O=C(Nc1nnc(CCCCc2nnc(NC(=O)C3(c4ccccc4)CC3)s2)s1)C1(c2ccccc2)CC1 | 1000 to 10000 nM
O=C(Cc1c[nH]cn1)Nc1nnc([C@H]2CCC[C@H](c3nnc(NC(=O)Cc4c[nH]cn4)s3)C2)s1 | < 100 nM
O=C(Cc1cccc(OC(F)(F)F)c1)Nc1nnc([C@H]2CCC[C@H](c3nnc(NC(=O)C(CO)c4ccccc4)s3)C2)s1 (stereo partly shown) | < 100 nM
O=C(Cc1cccc(Br)c1)Nc1nnc([C@H]2CCC[C@H](c3nnc(NC(=O)Cc4cccc(Br)c4)s3)C2)s1 | 100 to 500 nM
CCC(=O)Nc1ccc([C@@H]2CCC[C@H](c3ccc(NC(=O)CC)nn3)C2)nn1 | < 100 nM
COc1ccc(CCCC(=O)Nc2nnc(CCCCc3nnc(NC(=O)CCCc4ccc(OC)cc4)s3)s2)cc1 | 100 to 500 nM
CSCC(=O)Nc1nnc([C@H]2CCC[C@H](c3nnc(NC(=O)CSC)s3)C2)s1 | 500 to 1000 nM
O=C(Cc1ccc(N2CC(F)(F)C2)cc1)Nc1nnc([C@H]2CCC[C@H](c3nnc(NC(=O)Cc4ccc(N5CC(F)(F)C5)cc4)s3)C2)s1 | < 100 nM
O=C(Cc1ccccc1F)Nc1nnc([C@H]2CCC[C@H](c3nnc(NC(=O)Cc4ccccc4F)s3)C2)s1 | < 100 nM
CNC(=O)c1nnc(CCSCCc2nnc(C(=O)NC)s2)s1 | 1000 to 10000 nM
O=C(Cc1cccc(C(F)(F)F)c1F)Nc1nnc(CCCCc2nnc(NC(=O)Cc3cccc(C(F)(F)F)c3F)s2)s1 | 1000 to 10000 nM
Cc1ccccc1CC(=O)Nc1nnc(CCCCc2nnc(NC(=O)Cc3ccccc3C)s2)s1 | 100 to 500 nM
